target: hNPY2R (Homo sapiens); assay: cAMP Agonist Assay, HEK293/hNPY2R cells; type: cell-based; design: expressed in transfected cells; host or cells: HEK293/hNPY2R (G418 selection)
parameterMeasured: EC50 (nM)
Record the value in nM, omitting the unit from your answer.

Form field: reported EC50 of CCCC(=O)NCCCC[C@H](NC(=O)[C@@H](NC(C)=O)[C@@H](C)CC)C(=O)N1CCN(c2ccc3ncn(CC(=O)N[C@@H](CCCNC(=N)N)C(=O)N[C@@H](Cc4c[nH]cn4)C(=O)N[C@@H](Cc4ccc(O)cc4)C(=O)N[C@@H](CC(C)C)C(=O)N[C@@H](CC(N)=O)C(=O)N[C@@H](Cc4c[nH]c5ccccc45)C(=O)N[C@H](C(=O)N[C@H](C(=O)N[C@@H](CCCNC(=N)N)C(=O)N[C@@H](CCC(N)=O)C(=O)N(C)[C@@H](CCCNC(=N)N)C(=O)N[C@@H](Cc4ccc(O)cc4)C(N)=O)[C@@H](C)O)C(C)C)c(=O)c3c2)CC1 [Example 5]
0.39

---

Recorded EC50 for the following molecules
target: UniProt P49146; assay: cAMP Agonist Assay, HEK293/hNPY2R cells; format: cell-based; set-up: expressed in transfected cells; host or cells: HEK293/hNPY2R (G418 selection)
Report as a plain number; the unit nM is understood.

Sample records with EC50:
INSERT INTO assay_data (molecule, recordedmeasurement) VALUES
  ('CCCCCCCCCCCCCCCC(=O)N[C@H](C(=O)N[C@@H](CCCCN)C(=O)N1CCN(c2ccc3ncn(CC(=O)N[C@@H](CCCNC(=N)N)C(=O)N[C@@H](Cc4c[nH]cn4)C(=O)N[C@@H](Cc4ccc(O)cc4)C(=O)N[C@@H](CC(C)C)C(=O)N[C@@H](CC(N)=O)C(=O)N[C@@H](Cc4c[nH]c5ccccc45)C(=O)N[C@H](C(=O)N[C@H](C(=O)N[C@@H](CCCNC(=N)N)C(=O)N[C@@H](CCC(N)=O)C(=O)N(C)[C@@H](CCCNC(=N)N)C(=O)N[C@@H](Cc4ccc(O)cc4)C(N)=O)[C@@H](C)O)C(C)C)c(=O)c3c2)CC1)[C@@H](C)CC [Example 15]', 0.97),
  ('CCCCCCCCCCCCCCCC(=O)NCCCC[C@H](NC(=O)[C@@H](N)[C@@H](C)CC)C(=O)N1CCN(c2ccc3ncn(CC(=O)N[C@@H](CCCNC(=N)N)C(=O)N[C@@H](Cc4c[nH]cn4)C(=O)N[C@@H](Cc4ccc(O)cc4)C(=O)N[C@@H](CC(C)C)C(=O)N[C@@H](CC(N)=O)C(=O)N[C@@H](Cc4c[nH]c5ccccc45)C(=O)N[C@H](C(=O)N[C@H](C(=O)N[C@@H](CCCNC(=N)N)C(=O)N[C@@H](CCC(N)=O)C(=O)N(C)[C@@H](CCCNC(=N)N)C(=O)N[C@@H](Cc4ccc(O)cc4)C(N)=O)[C@@H](C)O)C(C)C)c(=O)c3c2)CC1 [Example 14]', 1);

# lookup: EC50 of CCCCCCCC(=O)NCCCC[C@H](NC(=O)[C@@H](NC(C)=O)[C@@H](C)CC)C(=O)N1CCN(c2ccc3ncn(CC(=O)N[C@@H](CCCNC(=N)N)C(=O)N[C@@H](Cc4c[nH]cn4)C(=O)N[C@@H](Cc4ccc(O)cc4)C(=O)N[C@@H](CC(C)C)C(=O)N[C@@H](CC(N)=O)C(=O)N[C@@H](Cc4c[nH]c5ccccc45)C(=O)N[C@H](C(=O)N[C@H](C(=O)N[C@@H](CCCNC(=N)N)C(=O)N[C@@H](CCC(N)=O)C(=O)N(C)[C@@H](CCCNC(=N)N)C(=O)N[C@@H](Cc4ccc(O)cc4)C(N)=O)[C@@H](C)O)C(C)C)c(=O)c3c2)CC1 [Example 6]
1.7

---

molecular target: Y4R (Homo sapiens); assay: CaFlux Assay (FLIPR), Y4R; format: cell-based
Sequence (P50391 whole entry): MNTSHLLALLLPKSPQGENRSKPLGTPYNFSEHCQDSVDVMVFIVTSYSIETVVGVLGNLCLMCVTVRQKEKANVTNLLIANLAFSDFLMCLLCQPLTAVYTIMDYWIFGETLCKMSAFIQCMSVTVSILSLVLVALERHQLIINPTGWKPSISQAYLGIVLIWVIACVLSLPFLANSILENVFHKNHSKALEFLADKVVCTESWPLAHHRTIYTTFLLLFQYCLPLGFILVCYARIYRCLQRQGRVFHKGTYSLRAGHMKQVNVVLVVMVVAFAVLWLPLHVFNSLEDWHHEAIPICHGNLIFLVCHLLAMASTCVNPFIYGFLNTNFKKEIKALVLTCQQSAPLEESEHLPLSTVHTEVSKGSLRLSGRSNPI
EC50 values for the compounds below.
Your answer is read as nM, so omit the unit and give the number.

Use the examples below as a reference point.
INSERT INTO assay_data (chemicalstructure, recordedmeasurement) VALUES
  ('CCCCCCCCCCCCCCCC(=O)N[C@H](C(=O)N[C@@H](CCCCN)C(=O)N1CCN(c2ccc3ncn(CC(=O)N[C@@H](CCCNC(=N)N)C(=O)N[C@@H](Cc4c[nH]cn4)C(=O)N[C@@H](Cc4ccc(O)cc4)C(=O)N[C@@H](CC(C)C)C(=O)N[C@@H](CC(N)=O)C(=O)N[C@@H](Cc4c[nH]c5ccccc45)C(=O)N[C@H](C(=O)N[C@H](C(=O)N[C@@H](CCCNC(=N)N)C(=O)N[C@@H](CCC(N)=O)C(=O)N(C)[C@@H](CCCNC(=N)N)C(=O)N[C@@H](Cc4ccc(O)cc4)C(N)=O)[C@@H](C)O)C(C)C)c(=O)c3c2)CC1)[C@@H](C)CC', 1360),
  ('CCCC(=O)NCCCC[C@H](NC(=O)[C@@H](NC(C)=O)[C@@H](C)CC)C(=O)N1CCN(c2ccc3ncn(CC(=O)N[C@@H](CCCNC(=N)N)C(=O)N[C@@H](Cc4c[nH]cn4)C(=O)N[C@@H](Cc4ccc(O)cc4)C(=O)N[C@@H](CC(C)C)C(=O)N[C@@H](CC(N)=O)C(=O)N[C@@H](Cc4c[nH]c5ccccc45)C(=O)N[C@H](C(=O)N[C@H](C(=O)N[C@@H](CCCNC(=N)N)C(=O)N[C@@H](CCC(N)=O)C(=O)N(C)[C@@H](CCCNC(=N)N)C(=O)N[C@@H](Cc4ccc(O)cc4)C(N)=O)[C@@H](C)O)C(C)C)c(=O)c3c2)CC1', 31600);

Let's switch to this compound now.
Request: EC50, test system Y4R (Homo sapiens), entry `CCCCCCCC(=O)NCCCC[C@H](NC(=O)[C@@H](NC(C)=O)[C@@H](C)CC)C(=O)N1CCN(c2ccc3ncn(CC(=O)N[C@@H](CCCNC(=N)N)C(=O)N[C@@H](Cc4c[nH]cn4)C(=O)N[C@@H](Cc4ccc(O)cc4)C(=O)N[C@@H](CC(C)C)C(=O)N[C@@H](CC(N)=O)C(=O)N[C@@H](Cc4c[nH]c5ccccc45)C(=O)N[C@H](C(=O)N[C@H](C(=O)N[C@@H](CCCNC(=N)N)C(=O)N[C@@H](CCC(N)=O)C(=O)N(C)[C@@H](CCCNC(=N)N)C(=O)N[C@@H](Cc4ccc(O)cc4)C(N)=O)[C@@H](C)O)C(C)C)c(=O)c3c2)CC1`
2470

---

Molecular target: hNPY2R (Homo sapiens)
Sequence (P49146 1-381): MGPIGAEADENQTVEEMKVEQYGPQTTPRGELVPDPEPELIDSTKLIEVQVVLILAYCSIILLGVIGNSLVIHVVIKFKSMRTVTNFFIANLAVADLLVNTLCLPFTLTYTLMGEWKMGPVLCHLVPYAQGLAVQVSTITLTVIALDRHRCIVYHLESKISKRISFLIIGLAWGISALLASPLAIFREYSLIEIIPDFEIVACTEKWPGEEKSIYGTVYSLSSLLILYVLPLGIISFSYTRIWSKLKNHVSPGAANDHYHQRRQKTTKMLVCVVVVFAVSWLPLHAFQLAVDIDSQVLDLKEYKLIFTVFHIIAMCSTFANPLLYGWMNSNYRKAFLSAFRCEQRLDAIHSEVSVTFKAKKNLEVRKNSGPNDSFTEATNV
Assay: CaFlux Assay (FLIPR), Y2R
Format: cell-based
Parameters: expressed in transfected cells; host or cells: HEK-293 stably expressing G protein chimera Gaqi9
parameterMeasured: pEC50
pEC50 is a log-scale quantity: -log10 of the concentration expressed in molar.

Given the entry `CCCCCCCCCCCCCCCC(=O)N[C@H](C(=O)N[C@@H](CCCCN)C(=O)N1CCN(c2ccc3ncn(CC(=O)N[C@@H](CCCNC(=N)N)C(=O)N[C@@H](Cc4c[nH]cn4)C(=O)N[C@@H](Cc4ccc(O)cc4)C(=O)N[C@@H](CC(C)C)C(=O)N[C@@H](CC(N)=O)C(=O)N[C@@H](Cc4c[nH]c5ccccc45)C(=O)N[C@H](C(=O)N[C@H](C(=O)N[C@@H](CCCNC(=N)N)C(=O)N[C@@H](CCC(N)=O)C(=O)N(C)[C@@H](CCCNC(=N)N)C(=O)N[C@@H](Cc4ccc(O)cc4)C(N)=O)[C@@H](C)O)C(C)C)c(=O)c3c2)CC1)[C@@H](C)CC` , what pEC50 was observed with hNPY2R (Homo sapiens)?
8.99

---

biological target: Y1R (Homo sapiens); assay: CaFlux Assay (FLIPR), Y1R; type: cell-based
Sequence (P25929 whole entry): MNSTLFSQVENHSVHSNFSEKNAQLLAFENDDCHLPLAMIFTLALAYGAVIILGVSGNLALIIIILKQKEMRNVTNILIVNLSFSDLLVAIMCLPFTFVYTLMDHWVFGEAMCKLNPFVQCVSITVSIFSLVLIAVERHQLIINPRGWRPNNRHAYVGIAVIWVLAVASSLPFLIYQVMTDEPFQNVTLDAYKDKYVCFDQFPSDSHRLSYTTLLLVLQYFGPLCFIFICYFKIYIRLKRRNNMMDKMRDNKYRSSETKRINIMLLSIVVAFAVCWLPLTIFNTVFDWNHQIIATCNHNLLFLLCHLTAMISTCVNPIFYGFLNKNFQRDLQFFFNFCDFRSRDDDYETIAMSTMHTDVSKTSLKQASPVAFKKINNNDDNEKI
parameterMeasured: EC50

INSERT INTO assay_data (compound, parametermeasured, recordedmeasurement) VALUES
  ('CCCC(=O)NCCCC[C@H](NC(=O)[C@@H](NC(C)=O)[C@@H](C)CC)C(=O)N1CCN(c2ccc3ncn(CC(=O)N[C@@H](CCCNC(=N)N)C(=O)N[C@@H](Cc4c[nH]cn4)C(=O)N[C@@H](Cc4ccc(O)cc4)C(=O)N[C@@H](CC(C)C)C(=O)N[C@@H](CC(N)=O)C(=O)N[C@@H](Cc4c[nH]c5ccccc45)C(=O)N[C@H](C(=O)N[C@H](C(=O)N[C@@H](CCCNC(=N)N)C(=O)N[C@@H](CCC(N)=O)C(=O)N(C)[C@@H](CCCNC(=N)N)C(=O)N[C@@H](Cc4ccc(O)cc4)C(N)=O)[C@@H](C)O)C(C)C)c(=O)c3c2)CC1 [Example 5]', 'EC50', '> 5 µM'),
  ('CCCCCCCCCCCCCCCC(=O)NCCCC[C@H](NC(=O)[C@@H](N)[C@@H](C)CC)C(=O)N1CCN(c2ccc3ncn(CC(=O)N[C@@H](CCCNC(=N)N)C(=O)N[C@@H](Cc4c[nH]cn4)C(=O)N[C@@H](Cc4ccc(O)cc4)C(=O)N[C@@H](CC(C)C)C(=O)N[C@@H](CC(N)=O)C(=O)N[C@@H](Cc4c[nH]c5ccccc45)C(=O)N[C@H](C(=O)N[C@H](C(=O)N[C@@H](CCCNC(=N)N)C(=O)N[C@@H](CCC(N)=O)C(=O)N(C)[C@@H](CCCNC(=N)N)C(=O)N[C@@H](Cc4ccc(O)cc4)C(N)=O)[C@@H](C)O)C(C)C)c(=O)c3c2)CC1 [Example 14]', 'EC50', '> 5 µM'),
  ('CCCCCCCCCCCCCCCC(=O)N[C@H](C(=O)N[C@@H](CCCCN)C(=O)N1CCN(c2ccc3ncn(CC(=O)N[C@@H](CCCNC(=N)N)C(=O)N[C@@H](Cc4c[nH]cn4)C(=O)N[C@@H](Cc4ccc(O)cc4)C(=O)N[C@@H](CC(C)C)C(=O)N[C@@H](CC(N)=O)C(=O)N[C@@H](Cc4c[nH]c5ccccc45)C(=O)N[C@H](C(=O)N[C@H](C(=O)N[C@@H](CCCNC(=N)N)C(=O)N[C@@H](CCC(N)=O)C(=O)N(C)[C@@H](CCCNC(=N)N)C(=O)N[C@@H](Cc4ccc(O)cc4)C(N)=O)[C@@H](C)O)C(C)C)c(=O)c3c2)CC1)[C@@H](C)CC [Example 15]', 'EC50', '> 5 µM');

From here, focus on the item given below.
So what EC50 did CCCCCCCC(=O)NCCCC[C@H](NC(=O)[C@@H](NC(C)=O)[C@@H](C)CC)C(=O)N1CCN(c2ccc3ncn(CC(=O)N[C@@H](CCCNC(=N)N)C(=O)N[C@@H](Cc4c[nH]cn4)C(=O)N[C@@H](Cc4ccc(O)cc4)C(=O)N[C@@H](CC(C)C)C(=O)N[C@@H](CC(N)=O)C(=O)N[C@@H](Cc4c[nH]c5ccccc45)C(=O)N[C@H](C(=O)N[C@H](C(=O)N[C@@H](CCCNC(=N)N)C(=O)N[C@@H](CCC(N)=O)C(=O)N(C)[C@@H](CCCNC(=N)N)C(=O)N[C@@H](Cc4ccc(O)cc4)C(N)=O)[C@@H](C)O)C(C)C)c(=O)c3c2)CC1 [Example 6] get with Y1R (Homo sapiens)?
5.2 µM
